FYI, the data here is from the supplement of paper PMC10307832.

test system: NCI-H2347; assay: relative viability (nuclei count vs DMSO), 5 days (fraction); higher = more cells survive; details: first compound 0.1 µM
Field: relative viability. Provide a value for each of the molecules that follow.

Input line: Tell me the measured relative viability of NC(=O)Nc1cc(-c2cccc(F)c2)sc1C(=O)N[C@H]1CCCNC1 [AZD7762] + C[C@]1(O)C[C@@H](c2nc(-c3ccc4ccc(-c5ccccc5)nc4c3)c3c(N)nccn32)C1 [Linsitinib] (partner 1 µM) , please.
Output line: 1.15

Input line: Tell me the measured relative viability of NC(=O)Nc1cc(-c2cccc(F)c2)sc1C(=O)N[C@H]1CCCNC1 [AZD7762] + COc1cccc2cc(-c3nc([C@H]4CC[C@H](C(=O)O)CC4)n4ncnc(N)c34)[nH]c12 [OSI-027] (partner 0.5 µM) , please.
Output line: 0.412

Input line: Tell me the measured relative viability of NC(=O)Nc1cc(-c2cccc(F)c2)sc1C(=O)N[C@H]1CCCNC1 [AZD7762] + CS(=O)(=O)N1CCN(Cc2cc3nc(-c4cccc5[nH]ncc45)nc(N4CCOCC4)c3s2)CC1 [Pictilisib] (partner 1 µM) , please.
Output line: 0.623

Input line: Tell me the measured relative viability of NC(=O)Nc1cc(-c2cccc(F)c2)sc1C(=O)N[C@H]1CCCNC1 [AZD7762] + CC(=O)Nc1cccc(-n2c(=O)n(C3CC3)c(=O)c3c(Nc4ccc(I)cc4F)n(C)c(=O)c(C)c32)c1 [Trametinib] (partner 0.02 µM) , please.
Output line: 0.281

* * *

tested on: NCI-H358; test: relative viability (nuclei count vs DMSO), 5 days (fraction); higher = more cells survive; conditions: first compound 8 µM
Field: relative viability. Provide a value for each of the compounds that follow.

Input line: Tell me the measured relative viability of C=C1C(=O)O[C@@H](CCCCCCCC)[C@@H]1C(=O)O [C-75] + CS(=O)(=O)N1CCN(Cc2cc3nc(-c4cccc5[nH]ncc45)nc(N4CCOCC4)c3s2)CC1 [Pictilisib] (partner 1 µM) , please.
Output line: 0.361

Input line: Tell me the measured relative viability of C=C1C(=O)O[C@@H](CCCCCCCC)[C@@H]1C(=O)O [C-75] + CC(=O)c1c(C)c2cnc(Nc3ccc(N4CCNCC4)cn3)nc2n(C2CCCC2)c1=O [Palbociclib] (partner 0.5 µM) , please.
Output line: 0.135

Input line: Tell me the measured relative viability of C=C1C(=O)O[C@@H](CCCCCCCC)[C@@H]1C(=O)O [C-75] + O=C(CCCCCCC(=O)Nc1ccccc1)NO [Vorinostat] (partner 1 µM) , please.
Output line: 0.608

Input line: Tell me the measured relative viability of C=C1C(=O)O[C@@H](CCCCCCCC)[C@@H]1C(=O)O [C-75] + COc1cc2c(Oc3ccc(NC(=O)C4(C(=O)Nc5ccc(F)cc5)CC4)cc3F)ccnc2cc1OCCCN1CCOCC1 [Foretinib] (partner 0.25 µM) , please.
Output line: 0.511

Input line: Tell me the measured relative viability of C=C1C(=O)O[C@@H](CCCCCCCC)[C@@H]1C(=O)O [C-75] + Cc1nc(Nc2ncc(C(=O)Nc3c(C)cccc3Cl)s2)cc(N2CCN(CCO)CC2)n1 [Dasatinib] (partner 0.075 µM) , please.
Output line: 0.143

Input line: Tell me the measured relative viability of C=C1C(=O)O[C@@H](CCCCCCCC)[C@@H]1C(=O)O [C-75] + COc1cccc2cc(-c3nc([C@H]4CC[C@H](C(=O)O)CC4)n4ncnc(N)c34)[nH]c12 [OSI-027] (partner 0.5 µM) , please.
Output line: 0.624

Input line: Tell me the measured relative viability of C=C1C(=O)O[C@@H](CCCCCCCC)[C@@H]1C(=O)O [C-75] + Cc1cc(Nc2cc(N3CCN(C)CC3)nc(Sc3ccc(NC(=O)C4CC4)cc3)n2)n[nH]1 [Tozasertib] (partner 0.1 µM) , please.
Output line: 0.103

* * *

system: 201T; test: relative viability (nuclei count vs DMSO), 5 days (fraction); higher = more cells survive; settings: first compound 0.08 µM
# 1 (yes) = relative viability below 1 (exclusive); 0 (no) = relative viability at/above 1

Input line: # strict comparison: is reported relative viability < 1? input = C=C1C(=O)O[C@@H](CCCCCCCC)[C@@H]1C(=O)O [C-75] + O=C(c1cc(Cc2n[nH]c(=O)c3ccccc23)ccc1F)N1CCN(C(=O)C2CC2)CC1 [Olaparib] (partner 8 µM)
Output line: 1 (yes)

Input line: # strict comparison: is reported relative viability < 1? input = C=C1C(=O)O[C@@H](CCCCCCCC)[C@@H]1C(=O)O [C-75] + COc1cc2c(Oc3ccc(NC(=O)C4(C(=O)Nc5ccc(F)cc5)CC4)cc3F)ccnc2cc1OCCCN1CCOCC1 [Foretinib] (partner 0.25 µM)
Output line: 0 (no)

Input line: # strict comparison: is reported relative viability < 1? input = Oc1nc(-c2ccc(C(F)(F)F)cc2)nc2c1CSCC2 [XAV939] + O=C(c1cc(Cc2n[nH]c(=O)c3ccccc23)ccc1F)N1CCN(C(=O)C2CC2)CC1 [Olaparib] (partner 8 µM)
Output line: 1 (yes)

Input line: # strict comparison: is reported relative viability < 1? input = Oc1nc(-c2ccc(C(F)(F)F)cc2)nc2c1CSCC2 [XAV939] + O=C(CCCCCCC(=O)Nc1ccccc1)NO [Vorinostat] (partner 1 µM)
Output line: 0 (no)

* * *

test system: NCI-H1915; experiment: relative viability (nuclei count vs DMSO), 5 days (fraction); higher = more cells survive; conditions: first compound 0.01 µM
Field: relative viability. Provide a value for each of the compounds that follow.
Answer with a bare number; do not write a unit.

Input line: Tell me the measured relative viability of NC(=O)Nc1cc(-c2cccc(F)c2)sc1C(=O)N[C@H]1CCCNC1 [AZD7762] + CCNC(=O)c1noc(-c2cc(C(C)C)c(O)cc2O)c1-c1ccc(CN2CCOCC2)cc1 [Luminespib] (partner 0.01 µM) , please.
Output line: 0.828

Input line: Tell me the measured relative viability of NC(=O)Nc1cc(-c2cccc(F)c2)sc1C(=O)N[C@H]1CCCNC1 [AZD7762] + CC(=O)c1c(C)c2cnc(Nc3ccc(N4CCNCC4)cn3)nc2n(C2CCCC2)c1=O [Palbociclib] (partner 0.5 µM) , please.
Output line: 0.552

Input line: Tell me the measured relative viability of NC(=O)Nc1cc(-c2cccc(F)c2)sc1C(=O)N[C@H]1CCCNC1 [AZD7762] + Cc1nc(NC(=O)N2CCC[C@H]2C(N)=O)sc1-c1ccnc(C(C)(C)C(F)(F)F)c1 [Alpelisib] (partner 2 µM) , please.
Output line: 1.06

* * *

test system: NCI-H2009; test: relative viability (nuclei count vs DMSO), 5 days (fraction); higher = more cells survive; details: first compound 2.53 µM
Measured quantity: relative viability
Answer with a bare number; do not write a unit.

Input line: Tell me the measured relative viability of C=C1C(=O)O[C@@H](CCCCCCCC)[C@@H]1C(=O)O [C-75] + COc1cc2c(Oc3ccc(NC(=O)C4(C(=O)Nc5ccc(F)cc5)CC4)cc3F)ccnc2cc1OCCCN1CCOCC1 [Foretinib] (partner 0.25 µM) , please.
Output line: 1.13

Input line: Tell me the measured relative viability of Oc1nc(-c2ccc(C(F)(F)F)cc2)nc2c1CSCC2 [XAV939] + Cc1nc(NC(=O)N2CCC[C@H]2C(N)=O)sc1-c1ccnc(C(C)(C)C(F)(F)F)c1 [Alpelisib] (partner 2 µM) , please.
Output line: 0.987

Input line: Tell me the measured relative viability of C=C1C(=O)O[C@@H](CCCCCCCC)[C@@H]1C(=O)O [C-75] + CCNC(=O)c1noc(-c2cc(C(C)C)c(O)cc2O)c1-c1ccc(CN2CCOCC2)cc1 [Luminespib] (partner 0.01 µM) , please.
Output line: 0.999

Input line: Tell me the measured relative viability of Oc1nc(-c2ccc(C(F)(F)F)cc2)nc2c1CSCC2 [XAV939] + Cc1nc(Nc2ncc(C(=O)Nc3c(C)cccc3Cl)s2)cc(N2CCN(CCO)CC2)n1 [Dasatinib] (partner 0.075 µM) , please.
Output line: 0.208

Input line: Tell me the measured relative viability of C=C1C(=O)O[C@@H](CCCCCCCC)[C@@H]1C(=O)O [C-75] + CS(=O)(=O)N1CCN(Cc2cc3nc(-c4cccc5[nH]ncc45)nc(N4CCOCC4)c3s2)CC1 [Pictilisib] (partner 1 µM) , please.
Output line: 0.428

Input line: Tell me the measured relative viability of Oc1nc(-c2ccc(C(F)(F)F)cc2)nc2c1CSCC2 [XAV939] + COc1cc2c(Oc3ccc(NC(=O)C4(C(=O)Nc5ccc(F)cc5)CC4)cc3F)ccnc2cc1OCCCN1CCOCC1 [Foretinib] (partner 0.25 µM) , please.
Output line: 1.16

Input line: Tell me the measured relative viability of C=C1C(=O)O[C@@H](CCCCCCCC)[C@@H]1C(=O)O [C-75] + Cc1cc(Nc2cc(N3CCN(C)CC3)nc(Sc3ccc(NC(=O)C4CC4)cc3)n2)n[nH]1 [Tozasertib] (partner 0.1 µM) , please.
Output line: 0.707

Input line: Tell me the measured relative viability of C=C1C(=O)O[C@@H](CCCCCCCC)[C@@H]1C(=O)O [C-75] + O=C(CCCCCCC(=O)Nc1ccccc1)NO [Vorinostat] (partner 1 µM) , please.
Output line: 0.783

Input line: Tell me the measured relative viability of Oc1nc(-c2ccc(C(F)(F)F)cc2)nc2c1CSCC2 [XAV939] + CC1(C)CCC(c2ccc(Cl)cc2)=C(CN2CCN(c3ccc(C(=O)NS(=O)(=O)c4ccc(N[C@H](CCN5CCOCC5)CSc5ccccc5)c(S(=O)(=O)C(F)(F)F)c4)cc3)CC2)C1 [Navitoclax] (partner 0.5 µM) , please.
Output line: 1.06
